Entry source: PubChem BioAssay AID1159580

For each entry below, report its normalized growth value.
Test: chemical genetic growth profiling, strain panel (AID 1159580);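 note: tested at 20 µM; growth read once vehicle control cultures reached saturation at 30 °C; 1 = growth at the plate median or of vehicle wells; lower values mean less growth of the strain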
Conditions: S. cerevisiae deletion strains, growth OD, locus YOR290C, strain snf2, active compounds read low
Among all 5,500 compounds or so, about 2,000 (36%) were called active. Inconclusive results (about 18%) are left out. Some of the results follow.
Please reply with the value in numeric form only.

Input: State, in one line, measured normalized growth of Nc1nc(N)c2nc(CNc3ccc(C(=O)NC(CCC(=O)O)C(=O)O)cc3)cnc2n1 (stereo not drawn)
Output: 0.933

Input: For the compound "COP(=S)(OC)Oc1ccc(SC)c(C)c1" , report normalized growth.
Output: 0.994

Input: In one line, give reported normalized growth of the entry NC(=O)c1cc[n+](CC2=C(C(=O)O)N3C(=O)C(NC(=O)C(c4ccccc4)S(=O)(=O)[O-])C3SC2)cc1 (stereo not drawn) .
Output: 0.998

Input: # return recorded normalized growth for entry "c1cc2c(cc1[C@H]1OC[C@H]3[C@@H]1CO[C@H]3c1ccc3c(c1)OCO3)OCO2"
Output: 0.828

Input: Annotate the compound "O=C1OCCN1/N=C\c1ccc([N+](=O)[O-])o1" with its measured normalized growth.
Output: 0.912

Input: Please give measured normalized growth of the following entry: "CCCN(CCC)CCc1cccc2c1CC(=O)N2"
Output: 0.953

Input: Fill in normalized growth for record "COc1ccc(CN(CCN(C)C)c2ncccn2)cc1"
Output: 1.02

Input: Report measured normalized growth; entry is Nc1nc2c(c(=O)[nH]1)N(C=O)C(CNc1ccc(C(=O)N[C@@H](CCC(=O)O)C(=O)O)cc1)CN2 (stereo partly drawn)
Output: 1.01

Input: Quickly give me recorded normalized growth for "NC(=O)N/N=C\c1ccc([N+](=O)[O-])o1"
Output: 0.986

Input: Read off the recorded normalized growth for CC(=O)O[C@H]1CC[C@@]2(C)C(=CCC3C2CC[C@@]2(C)C3CC[C@@H]2C(C)CCCC(C)C)C1 (stereo partly drawn)
Output: 1

Input: Answer with the recorded normalized growth of "NCc1ccc(S(N)(=O)=O)cc1" only.
Output: 1.02

Input: For "CC12CCC(CC1)C(C)(C)O2" , write its normalized growth.
Output: 0.979

Input: Input "NCCCCN=C(N)N" , output reported normalized growth.
Output: 1.01
